Molecular target: T1, human GLP-1 receptor (human, UniProt P43220 24-463)
T1 construct: whole, on cells; Used as purified membranes of the transfected hamster cells, not whole cells; also called hGLP-1
Assay: SPA, 2.0% vs 0.005% HSA
*1 amine or outer side, *2 acyl side, *3 side chain or, on linkers, in order; H or OH if unused. Where no end group is shown, it is not given here. Side-chain parts run from the residue outwards. [ ]: non-standard residue; d: D form. The star is where a group is joined. Decanoyl(10-(4-HOOC-PhO)) = O=C(O)c1ccc(OCCCCCCCCCC(=O)*)cc1; γGlu = O=C(O)[C@H](CCC(=O)[*:2])N[*:1]; 13‑carboxytridecanoyl = C14 diacid; AEEA = NCCOCCOCC(=O)O; Aib = CC(C)(N)C(=O)O
Assign ratio IC50 high HSA/IC50 low HSA to each entry below.

-- ask Specify reported ratio IC50 high HSA/IC50 low HSA for the binder shown: H[Aib]EGTFTSDVSK([AEEA-AEEA-γGlu-13‑carboxytridecanoyl])YLEEQAVRLFIAWLVK([AEEA-AEEA-γGlu-13‑carboxytridecanoyl]) [GLP-1 derivative of Example 63: [Aib8,Lys18,Glu22,Val25,Arg26,Leu27]-GLP-1-(7-34)-peptide]
-- reply > 1

-- ask Specify reported ratio IC50 high HSA/IC50 low HSA for the binder shown: H[Aib]EGTFTSDVSK([AEEA-AEEA-AEEA-AEEA-Decanoyl(10-(4-HOOC-PhO))])YLEEQAAK([AEEA-AEEA-AEEA-AEEA-Decanoyl(10-(4-HOOC-PhO))])EFIAWLVQGRG [GLP-1 derivative of Example 71: [Aib8,Lys18,Glu22,Gln34]-GLP-1-(7-37)-peptide]
-- reply > 1
